# assayed-system: T1, rat NPRA (rat, UniProt P18910 29-1057)
# T1 sequence (looked up): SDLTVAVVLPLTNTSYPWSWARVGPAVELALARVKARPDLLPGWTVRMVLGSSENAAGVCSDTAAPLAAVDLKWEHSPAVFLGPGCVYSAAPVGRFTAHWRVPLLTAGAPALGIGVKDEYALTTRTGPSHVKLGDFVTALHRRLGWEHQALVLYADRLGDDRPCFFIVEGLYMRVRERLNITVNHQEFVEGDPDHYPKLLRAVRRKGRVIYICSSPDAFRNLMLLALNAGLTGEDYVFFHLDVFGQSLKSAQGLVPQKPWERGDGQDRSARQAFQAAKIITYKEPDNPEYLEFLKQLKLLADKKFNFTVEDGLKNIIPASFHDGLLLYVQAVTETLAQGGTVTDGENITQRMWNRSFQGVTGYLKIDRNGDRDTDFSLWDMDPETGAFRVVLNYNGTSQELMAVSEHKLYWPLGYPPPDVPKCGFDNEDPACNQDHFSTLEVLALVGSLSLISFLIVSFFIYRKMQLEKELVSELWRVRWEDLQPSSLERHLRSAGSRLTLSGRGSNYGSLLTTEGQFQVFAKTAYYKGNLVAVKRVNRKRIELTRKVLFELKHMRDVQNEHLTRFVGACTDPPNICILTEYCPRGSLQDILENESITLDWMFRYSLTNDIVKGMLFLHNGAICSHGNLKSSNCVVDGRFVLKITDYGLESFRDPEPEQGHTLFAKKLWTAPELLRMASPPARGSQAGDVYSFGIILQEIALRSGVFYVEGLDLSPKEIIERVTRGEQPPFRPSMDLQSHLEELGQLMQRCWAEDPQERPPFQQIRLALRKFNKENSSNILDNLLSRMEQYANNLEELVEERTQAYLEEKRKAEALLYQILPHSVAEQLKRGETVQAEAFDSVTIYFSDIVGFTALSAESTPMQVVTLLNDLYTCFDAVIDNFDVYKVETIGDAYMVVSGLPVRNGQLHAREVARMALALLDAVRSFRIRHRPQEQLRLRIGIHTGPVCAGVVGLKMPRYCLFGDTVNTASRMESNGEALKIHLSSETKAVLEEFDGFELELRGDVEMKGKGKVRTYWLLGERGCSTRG
# test-summary: cell-based or functional assay
Numbered stars: 1 amine (or outer) side, 2 acyl side, 3 side chain; on linkers, the order of the positions; unused ones are H or OH. Bridge positions count the residues as written; N and C are the ends. Square brackets hold non-standard residues; d marks the D form. * marks the point of attachment. thioacetal = thioacetal linkage between two cysteines (intrachain bond at the bracketed Cys); C20 diacid = O=C(O)CCCCCCCCCCCCCCCCCCC(=O)*; γGlu = O=C(O)[C@H](CCC(=O)[*:2])N[*:1]; Orn = NCCC[C@H](N)C(=O)O; βAla = NCCC(=O)O
Listing of entries alongside the reported cGMP Assay (EC50, pM) w/BSA, rNPRA.
Write the number in pM without appending the unit.

Field: example entries. Status: answers known.
{"columns": ["binder", "numeric-result"],
 "data": [
  ["{C20 diacid-γGlu}-EKEKEKGEKPRSSCFGKRIDRIG[Orn]YSGLGCPSFRHGSPSSGAPPPS-NH2 (bridge 14-30 via thioacetal) [HOOC-(CH2)18-CO-(γGlu)-EKEKEKGEKPRSS[CFGKRIDRIG-Orn-YSGLGC]PSFRHGSPSSGAPPPS-NH2]", "6.52e+06"],
  ["EKPRSSCFGKRIDRIGHYSGLGCPSFRHGSPSSGAPPPS (N-terminus acylated with HOOC-(CH2)18-CO-(γGlu)-; (AEEA)8 after EKEKEKG; thioacetal linkage between the two bracketed Cys; C-terminal amide) [HOOC-(CH2)18-CO-(γGlu)-EKEKEKG-(AEEA)8-EKPRSS[CFGKRIDRIGHYSGLGC]PSFRHGSPSSGAPPPS-NH2]", 147000],
  ["EKPRSSCFGKRIDRIGHYSGLGCPSFRHSGSPSSGAPPPSG (N-terminus acylated with HOOC-(CH2)18-CO-(γGlu)-; (AEEA)6 after EKEKEKG; thioacetal linkage between the two bracketed Cys; C-terminal amide) [HOOC-(CH2)18-CO-(γGlu)-EKEKEKG-(AEEA)6-EKPRSS[CFGKRIDRIGHYSGLGC]PSFRHSGSPSSGAPPPSG-NH2]", 205000],
  ["{C20 diacid-γGlu}-EKEKEKGEK[βAla]RSSCFGKRIDRIGHYSGLGCPSFRHGSPSSGAPPPS-NH2 (bridge 14-30 via thioacetal)", 138000],
  ["SXRRSSCFGKRIDRIGHYSGLGCPSFRHGSPSSGAPPPS (N-terminus acylated with HOOC-(CH2)18-CO-(γGlu)-; PEG24 after EKEKEKG; 4Pal; thioacetal linkage between the two bracketed Cys; C-terminal amide) [HOOC-(CH2)18-CO-(γGlu)-EKEKEKG-PEG24-S-4Pal-RRSS[CFGKRIDRIGHYSGLGC]PSFRHGSPSSGAPPPS-NH2]", 100000]
]}

Quick one: give measured cGMP Assay (EC50, pM) w/BSA, rNPRA for SXRRSSCFGKRIDRIGHYSGLGCPSFRHGGKSSGAPPPS (N-terminus acylated with HOOC-(CH2)18-CO-(γGlu)-; (AEEA)6 after EKEKEKG; 4Pal; thioacetal linkage between the two bracketed Cys; C-terminal amide) [HOOC-(CH2)18-CO-(γGlu)-EKEKEKG-(AEEA)6-S-4Pal-RRSS[CFGKRIDRIGHYSGLGC]PSFRHGGKSSGAPPPS-NH2]
312000

Quick one: give measured cGMP Assay (EC50, pM) w/BSA, rNPRA for EKPRSSCFGKGIDRIGHQSGLGCPSFRHSGSPSSGAPPPSG (N-terminus acylated with HOOC-(CH2)18-CO-(γGlu)-; PEG24 after EKEKEKG; thioacetal linkage between the two bracketed Cys; C-terminal amide) [HOOC-(CH2)18-CO-(γGlu)-EKEKEKG-PEG24-EKPRSS[CFGKGIDRIGHQSGLGC]PSFRHSGSPSSGAPPPSG-NH2]
1.45e+06

Quick one: give measured cGMP Assay (EC50, pM) w/BSA, rNPRA for EKPRSSCFGKRIDRIGHYSGLGCPSFRHSGSPSSGAPPPSG (N-terminus acylated with HOOC-(CH2)18-CO-(γGlu)-; PEG24 after EKEKEKG; thioacetal linkage between the two bracketed Cys; C-terminal amide) [HOOC-(CH2)18-CO-(γGlu)-EKEKEKG-PEG24-EKPRSS[CFGKRIDRIGHYSGLGC]PSFRHSGSPSSGAPPPSG-NH2]
74300

Quick one: give measured cGMP Assay (EC50, pM) w/BSA, rNPRA for SXRRSSCFGKRIDRIGHYSGLGCPSFRHGSPSSGAPPPS (N-terminus acylated with HOOC-(CH2)18-CO-(γGlu)-; (AEEA)8 after EKEKEKG; 4Pal; thioacetal linkage between the two bracketed Cys; C-terminal amide) [HOOC-(CH2)18-CO-(γGlu)-EKEKEKG-(AEEA)8-S-4Pal-RRSS[CFGKRIDRIGHYSGLGC]PSFRHGSPSSGAPPPS-NH2]
149000

Quick one: give measured cGMP Assay (EC50, pM) w/BSA, rNPRA for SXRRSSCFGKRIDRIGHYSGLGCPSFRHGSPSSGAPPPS (N-terminus acylated with HOOC-(CH2)18-CO-(γGlu)-; (AEEA)6 after EKEKEKG; 4Pal; thioacetal linkage between the two bracketed Cys; C-terminal amide) [HOOC-(CH2)18-CO-(γGlu)-EKEKEKG-(AEEA)6-S-4Pal-RRSS[CFGKRIDRIGHYSGLGC]PSFRHGSPSSGAPPPS-NH2]
149000

Quick one: give measured cGMP Assay (EC50, pM) w/BSA, rNPRA for {C20 diacid}-[γGlu]EKEKEKGEK[βAla]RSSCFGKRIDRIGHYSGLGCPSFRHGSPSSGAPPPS-NH2 (bridge 15-31 via thioacetal)
498000

Quick one: give measured cGMP Assay (EC50, pM) w/BSA, rNPRA for {C20 diacid-γGlu}-EKEKEKGEKPRSSCFGKRIDRIGHQSGLGCPSFRHGSGSPSSGAPPPSG-NH2 (bridge 14-30 via thioacetal) [HOOC-(CH2)18-CO-(γGlu)-EKEKEKGEKPRSS[CFGKRIDRIGHQSGLGC]PSFRHGSGSPSSGAPPPSG-NH2]
816000
